- system.name: T1, HLA-A*02:01 (human)
- T1 construct: captured on streptavidin plates; also called peptide-receptive MHC molecules
- protocol: UV peptide exchange ELISA (anti-b2m); yield grade: + >10%, ++ >20%, +++ >50, ++++ >75%
endpoint.label: peptide exchange yield

Field: example entries. Status: answers known.
KLPGFPTQDDEV : 20 to 50%
VLNEYFHNV : > 75%
SIDDSDPIV : 10 to 20%
ALFPGDVDRL : 50 to 75%
SILDGLIHL : 50 to 75%
IIDDKPIGL : 50 to 75%
GLDKVITVL : 50 to 75%

Now for a further binder.
Enquiry: Find the recorded peptide exchange yield belonging to TLGTATFTV and report it.
Return: > 75%
